Listed compounds paired with reported melting point

Below: 8 compounds and their reported melting point.
INSERT INTO assay_data (compound, readout, observed_result) VALUES
  ('Cc1ccc(Oc2ccc([C@@H]3CCCN4CCS(=O)(=O)N=C34)cc2)cc1C', 'melting point', '170 to 171 °C'),
  ('O=S1(=O)CCN2CCCC(c3ccc(Oc4ccc(Cl)c(Cl)c4)cc3)C2=N1 (stereo not drawn)', 'melting point', '195 to 197 °C'),
  ('O=S1(=O)CCN2CCCC(c3ccc(OC(F)(F)F)cc3)C2=N1 (stereo not drawn)', 'melting point', '207 to 208 °C'),
  ('O=S1(=O)CCN2C=C(Cl)C=C(c3ccc(OC4CCCCC4)cc3)C2=N1', 'melting point', '284 to 287 °C'),
  ('O=S1(=O)CCN2CCCC(c3ccc(Oc4cccc(Cl)c4)cc3)C2=N1 (stereo not drawn)', 'melting point', '165 to 167 °C'),
  ('O=S1(=O)CCN2C=CC=C(c3ccc(OCC4CCCO4)cc3)C2=N1 (stereo not drawn)', 'melting point', '222 to 223 °C'),
  ('O=S1(=O)CCN2C=CC=C(c3ccc(OC4CCCCC4)cc3)C2=N1 [Example 165]', 'melting point', '275 to 277 °C'),
  ('CC(F)(F)c1cccc(Oc2ccc(C3CCCN4CCS(=O)(=O)N=C34)cc2)c1 (stereo not drawn)', 'melting point', '117 to 118 °C');

API: the following record is the query input.
Query string: Return reported melting point; argument: O=S1(=O)CCN2C=CC=C(c3ccc(Oc4ccccc4)cc3)C2=N1 [Example 31]
Result string: 252 to 253 °C

* * *

The entries below come with measured activity (%) values attached.
# Experimental Target: AMPA receptor (human GluR1 flip/stargazin expressed in CHO-K1 cells) (Homo sapiens, UniProt P42261)
# Construct: expressed in transfected cells; host or cells: CHO-K1
# Sequence (P42261 19-906 isoform P42261-2 limits assumed): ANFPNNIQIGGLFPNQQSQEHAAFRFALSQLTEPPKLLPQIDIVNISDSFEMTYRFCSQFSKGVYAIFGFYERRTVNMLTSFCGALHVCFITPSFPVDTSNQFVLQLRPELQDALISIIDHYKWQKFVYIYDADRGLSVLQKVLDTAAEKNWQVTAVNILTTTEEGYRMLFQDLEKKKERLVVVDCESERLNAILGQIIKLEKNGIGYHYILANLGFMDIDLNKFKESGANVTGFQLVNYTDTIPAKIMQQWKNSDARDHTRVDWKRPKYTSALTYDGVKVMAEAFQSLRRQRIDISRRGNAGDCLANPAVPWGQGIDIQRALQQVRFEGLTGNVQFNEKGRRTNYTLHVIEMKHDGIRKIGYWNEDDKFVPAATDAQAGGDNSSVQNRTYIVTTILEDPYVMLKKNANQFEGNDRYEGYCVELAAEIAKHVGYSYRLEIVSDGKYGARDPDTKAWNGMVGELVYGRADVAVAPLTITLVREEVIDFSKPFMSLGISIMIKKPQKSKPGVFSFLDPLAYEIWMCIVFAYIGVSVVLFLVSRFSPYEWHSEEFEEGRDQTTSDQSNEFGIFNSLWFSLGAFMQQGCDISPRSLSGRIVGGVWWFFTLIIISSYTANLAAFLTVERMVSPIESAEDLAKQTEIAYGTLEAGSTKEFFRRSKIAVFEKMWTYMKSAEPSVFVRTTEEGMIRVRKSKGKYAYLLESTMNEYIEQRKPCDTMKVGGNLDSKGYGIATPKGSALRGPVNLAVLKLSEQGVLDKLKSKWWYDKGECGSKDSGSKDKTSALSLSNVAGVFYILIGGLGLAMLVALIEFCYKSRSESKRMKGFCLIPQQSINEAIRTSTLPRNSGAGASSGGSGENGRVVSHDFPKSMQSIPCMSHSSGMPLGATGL
# Sequence (Q9Y698 whole entry partner): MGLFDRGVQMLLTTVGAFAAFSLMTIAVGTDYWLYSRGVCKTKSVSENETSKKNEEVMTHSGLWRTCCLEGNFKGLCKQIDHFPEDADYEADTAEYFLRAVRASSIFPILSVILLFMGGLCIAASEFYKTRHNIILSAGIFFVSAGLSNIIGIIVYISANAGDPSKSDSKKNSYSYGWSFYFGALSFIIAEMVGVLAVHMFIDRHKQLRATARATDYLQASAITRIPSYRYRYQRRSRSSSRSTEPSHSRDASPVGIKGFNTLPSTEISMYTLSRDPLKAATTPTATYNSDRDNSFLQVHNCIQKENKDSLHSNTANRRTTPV
# Test Details: AMPA receptor function enhancing activity using calcium influx as index
# Type: cell-based
# Measurement Conditions: test compound 30 μM with glutamic acid final 3 mM, change in fluorescence in 3 min, 100% = 3 mM glutamic acid + 300 μM cyclothiazide, 0% = 3 mM glutamic acid only
Write the number in % without appending the unit.

INSERT INTO assay_data (compound, observed_result) VALUES
  ('CCc1cccc(Oc2ccc(C3CCCN4CCS(=O)(=O)N=C34)cc2)c1 (stereo not drawn) [Example 131]', 58),
  ('CCC(C)c1ccc(NC(=O)C2=NC=CN3CCS(=O)(=O)N=C23)cc1 (stereo not drawn) [Example 1]', 66),
  ('CCCOc1ccc(C2=CC=CN3CCS(=O)(=O)N=C23)cc1F [Example 349]', 83);

Query string: Using the record for COc1cc(Oc2ccc(C3=CC=CN4CCS(=O)(=O)N=C34)cc2)ccc1F [Example 316] , report its activity (%).
Result string: 89

Query string: If you can, please state the reported activity (%) value of O=S1(=O)CCN2C=CC=C(c3ccc(Oc4cccc(Cl)c4)cc3)C2=N1 [Example 85] .
Result string: 84

Query string: For the compound shown here, Cc1ccc(Oc2ccc(C3CCCN4CCS(=O)(=O)N=C34)cc2)cc1C (stereo not drawn) [Example 135] , give the reported activity (%).
Result string: 59

Query string: What value of activity (%) has been recorded for this entry: COc1ccc2cc(C3CCCN4CCS(=O)(=O)N=C34)ccc2c1 (stereo not drawn) [Example 127]
Result string: 79

Query string: Suppose we examine the compound O=S1(=O)CCN2C=CN=C(c3ccc(-c4ccccc4)c(F)c3)C2=N1 [Example 344] ; what activity (%) value has been reported?
Result string: 74

Query string: Dear colleague, I am looking for the recorded activity (%) of the following compound: Cc1cccc(Oc2ccc(C3=CC=CN4CCS(=O)(=O)N=C34)cc2)c1 [Example 117]
Result string: 90

* * *

melting point: recorded values

Answered cases to consult:
INSERT INTO results (compound, observed_result) VALUES
  ('O=S1(=O)CCN2CCN[C@H](c3ccc(Oc4ccccc4)cc3)C2=N1 [Example 213]', '124 to 125 °C'),
  ('CC(C)(C)COc1ccc(C2=CC=CN3CCS(=O)(=O)N=C23)cc1 [Example 67]', '258 to 259 °C'),
  ('O=S1(=O)CCN2C=CC=C(c3ccc(Oc4ccccc4)cc3)C2=N1 [Example 167]', '253 to 255 °C'),
  ('CC(F)(F)c1ccc(Oc2ccc(C3CCCN4CCS(=O)(=O)N=C34)cc2)cc1 (stereo not shown) [Example 170]', '171 to 172 °C'),
  ('Cc1ccc(Oc2ccc(C3=CC=CN4CCS(=O)(=O)N=C34)cc2)cc1 [Example 168]', '248 to 250 °C');

Query string: Field request: melting point | item: O=S1(=O)CCN2CCC[C@@H](c3ccc(Oc4ccc(F)c(Cl)c4)cc3)C2=N1 [Example 457]
Result string: 154 to 156 °C

Query string: Recorded melting point for O=S1(=O)CCN2C=C(Cl)C=C(c3ccc(Oc4ncccc4C(F)(F)F)cc3)C2=N1 [Example 78] , please?
Result string: 264 to 265 °C

Query string: State the recorded melting point for this entry: O=S1(=O)CCN2CCCC(c3ccc(Oc4ccc(C(F)(F)F)cc4)cc3)C2=N1 (stereo not shown) [Example 125]
Result string: 191 to 193 °C

Query string: Form field: reported melting point of O=S1(=O)CCN2CCCC(c3ccc(Oc4ccc(Cl)cc4)cc3)C2=N1 (stereo not shown) [Example 150]
Result string: 183 to 185 °C

Query string: For the compound shown here, O=S1(=O)CCN2CCCC(c3ccc(C(F)(F)F)cc3)C2=N1 (stereo not shown) [Example 175] , give the reported melting point.
Result string: 226 to 227 °C

Query string: Reported melting point, compound Cc1cc(F)cc(Oc2ccc([C@@H]3CCCN4CCS(=O)(=O)N=C34)cc2)c1 [Example 236] : ____
Result string: 158 to 159 °C

Query string: What melting point value was documented for this compound, O=S1(=O)CCN2C=CC=C(c3ccc(OCC4CCOCC4)cc3)C2=N1 [Example 69] ?
Result string: 268 to 269 °C

Query string: Fill blank: measured melting point of the compound O=S1(=O)CCN2CCC[C@@H](c3ccc(Oc4cc(F)c(F)c(F)c4)cc3)C2=N1 [Example 227] is ____.
Result string: 180 to 181 °C

Query string: // melting point lookup, key: O=S1(=O)CCN2C=CC=C(c3ccc(OCC4CCCC4)cc3)C2=N1 [Example 74]
Result string: 258 to 259 °C

Query string: For the compound COc1ccc2ccc(OC3=CC=CN4CCS(=O)(=O)N=C34)cc2c1 [Example 59] , what melting point is on record?
Result string: 235 to 237 °C

Query string: Form field: reported melting point of O=S1(=O)CCN2CCCC(c3ccc(Oc4ccc(C(F)(F)F)cc4)cc3)C2=N1 (stereo not shown) [Example 232]
Result string: 174 to 176 °C

* * *

# Experimental Target: AMPA receptor (human GluR1 flip/stargazin expressed in CHO-K1 cells) (Homo sapiens, UniProt P42261)
# Construct: expressed in transfected cells; host or cells: CHO-K1
# Test Details: AMPA receptor function enhancing activity using calcium influx as index
# Type: cell-based
# Measurement Conditions: test compound 30 μM with 3 mM glutamic acid, change in fluorescence level in 3 min, 100% = 3 mM glutamic acid + 300 μM cyclothiazide, 0% = 3 mM glutamic acid only
Readout: activity (%)
Response body: numeric value in %, unit text excluded.

INSERT INTO measurements (molecule, unit_symbol, observed_result) VALUES
  ('CC(C)Oc1ccc(C2=CC=CN3CCS(=O)(=O)N=C23)cc1Cl', '%', 79),
  ('O=C1CCC(Oc2ccc(C3=CC=CN4CCS(=O)(=O)N=C34)cc2)CC1', '%', 76),
  ('CC(F)(F)c1cccc(Oc2ccc(C3CCCN4CCS(=O)(=O)N=C34)cc2)c1 (stereo not drawn) [Example 158]', '%', 76),
  ('O=S1(=O)CCN2CCC[C@@H](c3ccc(-c4ccccc4Cl)cc3)C2=N1', '%', 93),
  ('O=S1(=O)CCN2CCCC(c3ccc(C(F)(F)F)cc3)C2=N1 (stereo not drawn) [Example 177]', '%', 69);

Query string: // returns reported activity (%) for input O=S1(=O)CCN2C=CC=C(c3ccc(Oc4ccc(F)cc4)cc3)C2=N1
Result string: 79

Query string: # get_value(readout='activity (%)', item= O=S1(=O)CCN2CCCC(Oc3ccc4c(c3)CCCC4)C2=N1 (stereo not drawn) )
Result string: 87

Query string: Which value of activity (%) has been reported for O=S1(=O)CCN2CCCC(c3ccc(-c4ccccc4Cl)cc3)C2=N1 (stereo not drawn) in the records?
Result string: 96
